tested on: Staphylococcus aureus (methicillin-resistant and sensitive clinical isolates; ATCC29213); assay: MIC by micro broth dilution (CLSI), Staphylococcus aureus; format: cell-based; conditions: Standard strain ATCC29213, read-out: MIC
quantityName: MIC (µg/mL)

compound	MIC, µg/mL
O=[N+]([O-])c1cc(Cl)c2c(N3CCCC3)ccnc2c1O [Example 42]	32

P = O=[N+]([O-])c1cc(Cl)c2cc(CN3CCOCC3)cnc2c1O [Example 96]
Q = CCOC(=O)c1cnc2c(O)c([N+](=O)[O-])ccc2c1 [Example 88]
R = O=[N+]([O-])c1cc(F)c2c(OCC3CC3)ccnc2c1O [Example 72]
QUERY: Hey, can you sort those compounds up there by MIC, smallest first? Give me the labels in the order the question wants.
RESULT: R, Q, P
(R: 2 µg/mL, Q: 16 µg/mL, P: 32 µg/mL)
